Biological target: IDH2 R140Q (Homo sapiens, UniProt P48735, R140Q)
Sequence (P48735 40-452 R140Q): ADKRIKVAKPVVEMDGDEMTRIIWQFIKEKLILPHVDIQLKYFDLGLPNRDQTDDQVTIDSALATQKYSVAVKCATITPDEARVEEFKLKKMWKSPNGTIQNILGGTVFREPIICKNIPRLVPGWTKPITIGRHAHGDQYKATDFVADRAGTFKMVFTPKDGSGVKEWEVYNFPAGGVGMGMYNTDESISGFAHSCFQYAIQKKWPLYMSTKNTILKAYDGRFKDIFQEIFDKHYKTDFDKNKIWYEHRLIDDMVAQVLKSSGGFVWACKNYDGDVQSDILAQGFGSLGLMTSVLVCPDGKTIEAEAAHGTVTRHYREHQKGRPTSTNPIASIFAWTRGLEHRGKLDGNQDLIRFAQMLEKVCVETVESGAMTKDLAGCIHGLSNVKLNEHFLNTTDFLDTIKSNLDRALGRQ
Assay: IDH2 R140Q enzymatic assay (cofactor depletion, similar format)
Type: biochemical
Details: read-out: Enz R140Q
measured_parameter: IC50

Sample answers from the record:
{"molecule": "CC(C)Nc1nc(Nc2cccc(S(C)(=O)=O)c2)nc(-c2cccc(C3CC3)n2)n1", "IC50": "0.1 to 1 µM"}
{"molecule": "CC#Cc1cccc(-c2nc(Nc3cccc(S(C)(=O)=O)c3)nc(NC(C)C)n2)n1", "IC50": "1 to 10 µM"}
{"molecule": "Cc1cccc(-c2nc(Nc3cccc(S(C)(=O)=O)c3)nc(NC(C)C)n2)n1", "IC50": "0.1 to 1 µM"}
{"molecule": "CC(C)Nc1nc(Nc2cccc(S(=O)(=O)C(C)C)c2)nc(-c2ccccc2)n1", "IC50": "< 0.1 µM"}
{"molecule": "Cc1nc(-c2nc(Nc3cccc(F)c3)nc(NC(C)C)n2)co1", "IC50": "0.1 to 1 µM"}
{"molecule": "CC(C)(C)OC(=O)Nc1nc(Nc2ccccc2)nc(-c2ccccc2)n1", "IC50": "< 0.1 µM"}

## Input Look up and report measured IC50 for this entry: CC(C)Nc1nc(Nc2ccccc2)nc(-c2ccccc2NS(C)(=O)=O)n1
## Output 0.1 to 1 µM

## Input Look up and report measured IC50 for this entry: CC(C)(C)C(=O)Nc1nc(Nc2ccccc2)nc(-c2ccccc2)n1
## Output < 0.1 µM

## Input Look up and report measured IC50 for this entry: COC1(c2cc(Nc3nc(NC(C)C)nc(-c4cccc(C(F)(F)F)n4)n3)ccn2)CC1
## Output 0.1 to 1 µM

## Input Look up and report measured IC50 for this entry: CC(C)Nc1nc(Nc2cc(F)cc(F)c2)nc(-c2cc(O)cc(O)c2)n1
## Output 0.1 to 1 µM

## Input Look up and report measured IC50 for this entry: C#Cc1cccc(-c2nc(Nc3cccc(S(C)(=O)=O)c3)nc(NC(C)C)n2)n1
## Output 0.1 to 1 µM

## Input Look up and report measured IC50 for this entry: CCOC(=O)Nc1nc(Nc2ccccc2)nc(-c2ccccc2)n1
## Output < 0.1 µM

## Input Look up and report measured IC50 for this entry: CC(CO)Nc1nc(Nc2ccccc2)nc(-c2ccccc2)n1 (centres unmarked)
## Output < 0.1 µM

## Input Look up and report measured IC50 for this entry: c1ccc(-c2nc(Nc3ccncc3)nc(NC3CCCC3)n2)cc1 [Compound 287]
## Output 0.1 to 1 µM

## Input Look up and report measured IC50 for this entry: CC(C)Nc1nc(Nc2ccnc(C3CC3)c2)nc(-c2cccc(C(F)(F)F)n2)n1
## Output 0.1 to 1 µM

## Input Look up and report measured IC50 for this entry: c1ccc(-c2nc(NCC3COC3)nc(Nc3ccncc3)n2)cc1
## Output 0.1 to 1 µM

## Input Look up and report measured IC50 for this entry: CC(C)Nc1nc(Nc2ccc(Cl)nc2)nc(-c2ccccc2)n1
## Output < 0.1 µM

## Input Look up and report measured IC50 for this entry: Cc1ccccc1-c1nc(Nc2ccccc2)nc(NC(C)C)n1
## Output < 0.1 µM
